Molecular target: T1, S65-phosphorylated ubiquitin (human, UniProt P0CG48 1-76, phosphoserine at 65)
T1 construct: ubiquitin, human; the cut product of the ubiquitin precursor; phosphorylated at S65 by PINK1; One chemical species that exchanges slowly between two conformations, pUbRL and pUbRT; The printed KD, kon and koff are defined for the pUbRL state; 15N-labelled or unlabelled, depending on the experiment; also called pUb; pUbRL (C-terminally relaxed conformation); source: E. coli BL21 star, purified; …
Experiment: NMR titration; 1H-15N HSQC; 100 uM 15N-labeled Ub or pUb titrated with unlabeled UBA (22.7 to 340.4 uM); 20 mM HEPES, 150 mM NaCl, pH 7.4, 25 C; CSPs of pUb fitted with the revised model of coupled pUbRL/pUbRT equilibria (KD is for pUbRL), CSPs of Ub with a simple one-site model
Details: both partners purified
MEASURED_ATTRIBUTE: pKd
In plain terms, pKd is the concentration in mol/L turned into minus its base-10 logarithm.

# binder PEVRFQQQLEQLNAMGFLNREANLQALIATGGDINAAIERLLGS (domain or fragment, UniProt Q9UHD9 578-621, looked up, Ubiquilin-2 (Ubqln2), human, UBA domain, residues 578 to 621; synthetic gene with optimized codons in pET11a; 15N- or 15N/13C-labelled in some experiments; also called UBA domain from Ubqln2; Ubiqulin-2 UBA; source: E. coli BL21 (DE3), purified (Ni-NTA, Sephacryl S100; TEV cleavage, second Ni-NTA, Sephacryl S100); not shown: thioredoxin, N-terminal, cleaved; His6, N-terminal, cleaved) [Human Ubqln2-UBA (residues 578 to 621)] ; its pKd = 4.36
